assay: Binding Inhibition Assay: Jurkat cells expressing CXCR4 were washed once with assay buffer (Hanks' balanced salt solution with 20 mM HEPES buffer and 0.2% bovine serum albumin, pH 7.4) and then incubated for 15 min at room temperature with the test compounds diluted in assay buffer at dose-dependent concentrations. Subsequently, CXCL12-AF647 (25 ng/mL) was added to the compound-incubated cells. The cells were incubated for 30 min at room temperature. Thereafter, the cells were washed twice in assay buffer, fixed in 1% paraformaldehyde in PBS, and analyzed on the FL4 channel of a FACSCalibur flow cytometer equipped with a 635-nm red diode lase.
Measured quantity: IC50

IC50 for `CC[C@H](O)c1c([C@H]2CCC[C@@H](c3ncccc3C)N2C)nc2cccc(N3CCN(C)CC3)n12` ? 0.01 to 100 nM
